target: Nav1.7 (or SCN9A) channel (Homo sapiens, UniProt Q15858); construct: expressed in transfected cells; experiment: Nav1.7 PatchXpress 7000 automated electrophysiology assay (HEK cells stably expressing hSCN9A); format: cell-based; settings: voltage-clamped at V1/2 of inactivation, read-out: Nav1.7 EIC50
Sequence (Q15858 whole entry): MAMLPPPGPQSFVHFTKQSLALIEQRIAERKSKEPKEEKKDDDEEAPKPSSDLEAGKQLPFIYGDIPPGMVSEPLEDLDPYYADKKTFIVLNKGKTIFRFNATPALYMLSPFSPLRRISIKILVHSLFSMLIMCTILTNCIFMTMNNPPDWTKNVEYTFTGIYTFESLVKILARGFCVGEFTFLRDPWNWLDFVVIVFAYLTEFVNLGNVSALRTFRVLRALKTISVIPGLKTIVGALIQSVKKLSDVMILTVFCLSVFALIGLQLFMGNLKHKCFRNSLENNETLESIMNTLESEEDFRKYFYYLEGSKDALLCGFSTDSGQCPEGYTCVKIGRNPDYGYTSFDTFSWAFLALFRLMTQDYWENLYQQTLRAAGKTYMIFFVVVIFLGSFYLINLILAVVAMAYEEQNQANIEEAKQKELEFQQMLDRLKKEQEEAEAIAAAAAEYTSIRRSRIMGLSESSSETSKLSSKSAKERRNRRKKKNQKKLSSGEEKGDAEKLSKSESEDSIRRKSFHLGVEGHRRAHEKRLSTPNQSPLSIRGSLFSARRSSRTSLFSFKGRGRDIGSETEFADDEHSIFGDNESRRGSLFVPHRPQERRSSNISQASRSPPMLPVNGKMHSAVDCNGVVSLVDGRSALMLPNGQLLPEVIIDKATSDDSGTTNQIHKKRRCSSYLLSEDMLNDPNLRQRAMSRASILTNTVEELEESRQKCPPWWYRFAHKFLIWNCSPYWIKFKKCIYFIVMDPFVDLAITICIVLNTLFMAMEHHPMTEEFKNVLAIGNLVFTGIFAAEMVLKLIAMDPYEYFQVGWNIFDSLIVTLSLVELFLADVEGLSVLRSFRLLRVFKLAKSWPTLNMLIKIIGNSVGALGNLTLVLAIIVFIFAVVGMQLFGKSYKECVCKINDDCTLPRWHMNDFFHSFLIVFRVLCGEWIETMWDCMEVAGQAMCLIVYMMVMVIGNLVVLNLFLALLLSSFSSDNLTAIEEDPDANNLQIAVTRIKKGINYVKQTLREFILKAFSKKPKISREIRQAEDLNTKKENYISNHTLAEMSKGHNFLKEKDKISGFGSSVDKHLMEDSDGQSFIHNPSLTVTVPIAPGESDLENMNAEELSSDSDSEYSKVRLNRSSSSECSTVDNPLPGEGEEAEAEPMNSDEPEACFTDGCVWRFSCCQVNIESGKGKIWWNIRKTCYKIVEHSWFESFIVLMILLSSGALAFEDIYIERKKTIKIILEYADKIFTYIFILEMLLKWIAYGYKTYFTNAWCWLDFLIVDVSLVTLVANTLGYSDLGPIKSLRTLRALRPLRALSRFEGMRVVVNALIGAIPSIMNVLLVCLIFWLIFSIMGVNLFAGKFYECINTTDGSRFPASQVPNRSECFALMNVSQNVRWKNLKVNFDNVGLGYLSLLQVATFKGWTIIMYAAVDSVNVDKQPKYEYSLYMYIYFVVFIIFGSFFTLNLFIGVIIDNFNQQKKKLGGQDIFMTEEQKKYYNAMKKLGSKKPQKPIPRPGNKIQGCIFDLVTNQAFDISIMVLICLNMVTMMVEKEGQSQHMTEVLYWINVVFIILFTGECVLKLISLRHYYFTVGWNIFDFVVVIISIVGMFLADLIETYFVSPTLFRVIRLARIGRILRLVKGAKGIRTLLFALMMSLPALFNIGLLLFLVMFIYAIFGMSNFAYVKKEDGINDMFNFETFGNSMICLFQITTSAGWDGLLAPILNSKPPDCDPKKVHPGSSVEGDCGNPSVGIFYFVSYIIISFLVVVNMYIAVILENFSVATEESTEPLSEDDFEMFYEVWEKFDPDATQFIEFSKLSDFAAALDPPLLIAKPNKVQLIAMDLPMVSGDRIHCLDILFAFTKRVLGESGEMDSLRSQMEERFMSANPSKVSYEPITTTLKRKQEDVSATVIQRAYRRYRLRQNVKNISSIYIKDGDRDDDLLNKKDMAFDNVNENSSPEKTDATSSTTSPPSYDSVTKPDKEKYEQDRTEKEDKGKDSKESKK
Rule: IC50 below 3 µM gives rule met, anything at or above gives rule not met.

Worked examples follow.
# TEST_SMILES, CLASSIFICATION
records = [
    ("COc1ccc(F)cc1Oc1ccc(C(=O)NS(C)(=O)=O)cc1", "rule not met"),
    ("CS(=O)(=O)NC(=O)c1ccc(Oc2ccc(Cl)c(Cl)c2)c(C#N)c1", "rule met"),
    ("COc1ccc(C#N)cc1Oc1cc(F)c(C(=O)NS(C)(=O)=O)cc1F", "rule not met"),
    ("CS(=O)(=O)NC(=O)c1ccc(Oc2ccc(F)c(Cl)c2)cc1", "rule not met"),
    ("Cc1cccc(C)c1Oc1cc(F)c(C(=O)NS(C)(=O)=O)cc1F", "rule not met"),
    ("Cc1ccc(F)cc1Oc1ccc(C(=O)NS(C)(=O)=O)cc1", "rule not met"),
    ("CS(=O)(=O)NC(=O)c1cc(F)c(Oc2cccc(C(F)(F)F)c2)cc1F", "rule not met"),
    ("CS(=O)(=O)NC(=O)c1ccc(Oc2cccc(C(F)(F)F)c2)cc1", "rule not met"),
    ("CS(=O)(=O)NC(=O)c1ccc(Oc2ccc(Cl)c(Cl)c2)c(C(F)(F)F)c1", "rule met"),
    ("Cc1cc(C(=O)NS(C)(=O)=O)ccc1Oc1ccc(Cl)cc1", "rule met"),
]

Prompt: State whether 3 µM exceeds IC50 recorded for `CS(=O)(=O)NC(=O)c1ccc(Oc2ccc(C#N)c(C(F)(F)F)c2)cc1` .
Completion: rule not met

Prompt: Note, next up: `COc1cc(Cl)ccc1Oc1cc(F)c(C(=O)NS(C)(=O)=O)cc1Cl`
Completion: rule met

Prompt: Note, next up: `COc1cccc(Oc2ccc(C(=O)NS(C)(=O)=O)cc2)c1`
Completion: rule not met

Prompt: Note, next up: `CS(=O)(=O)NC(=O)c1ccc(Oc2cccc(Cl)c2)cc1`
Completion: rule not met

Prompt: Note, next up: `CS(=O)(=O)NC(=O)c1cc(F)c(Oc2ccc(Cl)c(C(F)(F)F)c2)cc1F`
Completion: rule met
